# protocolText: Enzymatic kinetic measurements of purified proteins with compound A as substrate
# Type: biochemical
# conditionParameters: purified protein, compound A 0-1000 μM as substrate
# Description: Based on the results of HPLC, representative engineered proteins were selected for protein purification. Further protein characterization, such as Km, Vmax and Kcat, was performed on the 8 engineered proteins from Table 2. Conventional Ni column affinity chromatography was used for protein purification and protein extract purity was assessed by SDS-PAGE analysis. After determining protein concentration by BCA method, enzyme activity was determined.
valueKind: Kcat (S^−1)
Your answer should be a plain number; it is taken to be in S^−1.

So what's the measured Kcat for this one? SEQ ID NO: 50: RdpA mutant L82H + V187L + F182W + R104G + V80T (protein) MHAALSPLSQRFERIAVQPLTGVLGAEITGVDLREPLDDSTWNEILDAFHTYQVIYFPGQAITNEQHIAFSRRFGPVDPTPHLKSIEGYPEVQMIRREANESGGVIGDDWHTDSTFLDAPPAAVVMRAIDVPEHGGDTGFLSMYTAWETLSPTMQATIEGLNVVHSATRVFGSLYQAQNRRWSNTSLKVMDVDAGDRETVHPLVVTHPGSGRKGLYVNQVYCQRIEGMTDAESKPLLQFLYEHATRFDFTCRVRWKKDQVLVWDNLCTMHRAVPDYAGKFRYLTRTTVGGVRPAR 0.07
